// each record: one item and its pKi for Cannabinoid receptor 1 (Homo sapiens, UniProt P21554)
# pKi: negative log10 of molar concentration; output just the value

Name the recorded pKi of Cc1cc(C)cc(-c2ccc(C(C)(C)CO)cc2O)c1 , assay system Cannabinoid receptor 1 (Homo sapiens, UniProt P21554).
5.66

Jot down pKi (Cannabinoid receptor 1 (Homo sapiens, UniProt P21554)) of CCCCCCC(C)(C)c1ccc(-c2ccccc2OC)c(O)c1 .
8.77

Report pKi on Cannabinoid receptor 1 (Homo sapiens, UniProt P21554) for this entry: CCCCCCC(C)(C)c1ccc(-c2cccc(OC)c2OC)c(O)c1
Sequence (P21554 whole entry): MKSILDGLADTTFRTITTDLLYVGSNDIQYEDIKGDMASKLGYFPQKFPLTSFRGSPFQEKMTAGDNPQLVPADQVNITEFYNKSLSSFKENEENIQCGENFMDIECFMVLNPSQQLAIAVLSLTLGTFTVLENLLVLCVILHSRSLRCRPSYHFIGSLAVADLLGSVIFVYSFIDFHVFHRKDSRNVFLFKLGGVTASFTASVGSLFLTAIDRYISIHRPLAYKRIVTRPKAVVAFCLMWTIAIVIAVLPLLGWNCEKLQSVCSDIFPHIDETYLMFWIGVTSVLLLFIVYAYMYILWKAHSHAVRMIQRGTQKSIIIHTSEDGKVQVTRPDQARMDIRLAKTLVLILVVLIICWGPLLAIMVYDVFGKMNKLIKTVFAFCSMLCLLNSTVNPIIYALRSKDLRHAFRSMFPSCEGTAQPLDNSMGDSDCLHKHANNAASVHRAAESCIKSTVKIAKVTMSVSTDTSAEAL
7.47

State, for Cannabinoid receptor 1 (Homo sapiens, UniProt P21554), measured pKi of the compound listed here: CCCCCCC(C)(C)c1ccc(-c2cc(C)cc(C)c2)c(O)c1
8.57

Enter recorded pKi with Cannabinoid receptor 1 (Homo sapiens, UniProt P21554) for COC(=O)CCCCC(C)(C)c1ccc(-c2cc(C)cc(C)c2)c(O)c1 here.
7.62

Print Cannabinoid receptor 1 (Homo sapiens, UniProt P21554) pKi for CCCCCCC(C)(C)c1ccc(-c2cc(C)cc(C)c2)c(COC(=O)CN2CCOCC2)c1 .
6.43

Would you please give the reported pKi of CCCCCCC(C)(C)c1ccc(-c2ccc(N)cc2)c(O)c1 with Cannabinoid receptor 1 (Homo sapiens, UniProt P21554)?
6.49

Identify measured pKi obtained with Cannabinoid receptor 1 (Homo sapiens, UniProt P21554) for CCCCCCC(C)(C)c1ccc(-c2ccc(OC)c(OC)c2)c(O)c1 .
5.85

Print Cannabinoid receptor 1 (Homo sapiens, UniProt P21554) pKi for CNC(=O)CCCCC(C)(C)c1ccc(-c2cc(C)cc(C)c2)c(O)c1 .
7.02

Report its pKi with Cannabinoid receptor 1 (Homo sapiens, UniProt P21554) as the test system: CCCCCCC(C)(C)c1ccc(-c2cccc(OC)c2)c(O)c1
7.04

Provide pKi, recorded with Cannabinoid receptor 1 (Homo sapiens, UniProt P21554), of COC(=O)CCC(C)(C)c1ccc(-c2cc(C)cc(C)c2)c(O)c1
6.92

Provide Cannabinoid receptor 1 (Homo sapiens, UniProt P21554) pKi reading for CCCCCCC(C)(C)c1ccc(-c2ccccc2N)c(O)c1 .
8.28

Report pKi from Cannabinoid receptor 1 (Homo sapiens, UniProt P21554) testing of CNC(=O)CCC(C)(C)c1ccc(-c2cc(C)cc(C)c2)c(O)c1
6.08

Enter pKi (test system Cannabinoid receptor 1 (Homo sapiens, UniProt P21554)) for CCCCCCC1(c2ccc(-c3cc(C)cc(C)c3)c(O)c2)CC1
7.89

Recall the reported pKi of CCCCCCC(C)(C)c1ccc(-c2cc(C)cc(C)c2)c(OC)c1 on Cannabinoid receptor 1 (Homo sapiens, UniProt P21554) and write it down.
6.49

Jot down pKi (Cannabinoid receptor 1 (Homo sapiens, UniProt P21554)) of CCCCCCC(C)(C)c1ccc(-c2cccc(N)c2)c(O)c1 .
7.82

System Cannabinoid receptor 1 (Homo sapiens, UniProt P21554). Read-out pKi. Item CCCCCCC(C)(C)c1ccc(-c2cc(C)cc(C)c2)c(CN2CCOCC2)c1 . Report value.
5.41

Report value only: pKi, Cannabinoid receptor 1 (Homo sapiens, UniProt P21554), CCCCCCC(C)(C)c1ccc(-c2cccnc2)c(O)c1
7.64
